Data origin, for the record: patent US12180193B2

- System: BRAF G466V (Homo sapiens, UniProt P15056, G466V)
- Construct: expressed in transfected cells
- Sequence (P15056 whole entry G466V): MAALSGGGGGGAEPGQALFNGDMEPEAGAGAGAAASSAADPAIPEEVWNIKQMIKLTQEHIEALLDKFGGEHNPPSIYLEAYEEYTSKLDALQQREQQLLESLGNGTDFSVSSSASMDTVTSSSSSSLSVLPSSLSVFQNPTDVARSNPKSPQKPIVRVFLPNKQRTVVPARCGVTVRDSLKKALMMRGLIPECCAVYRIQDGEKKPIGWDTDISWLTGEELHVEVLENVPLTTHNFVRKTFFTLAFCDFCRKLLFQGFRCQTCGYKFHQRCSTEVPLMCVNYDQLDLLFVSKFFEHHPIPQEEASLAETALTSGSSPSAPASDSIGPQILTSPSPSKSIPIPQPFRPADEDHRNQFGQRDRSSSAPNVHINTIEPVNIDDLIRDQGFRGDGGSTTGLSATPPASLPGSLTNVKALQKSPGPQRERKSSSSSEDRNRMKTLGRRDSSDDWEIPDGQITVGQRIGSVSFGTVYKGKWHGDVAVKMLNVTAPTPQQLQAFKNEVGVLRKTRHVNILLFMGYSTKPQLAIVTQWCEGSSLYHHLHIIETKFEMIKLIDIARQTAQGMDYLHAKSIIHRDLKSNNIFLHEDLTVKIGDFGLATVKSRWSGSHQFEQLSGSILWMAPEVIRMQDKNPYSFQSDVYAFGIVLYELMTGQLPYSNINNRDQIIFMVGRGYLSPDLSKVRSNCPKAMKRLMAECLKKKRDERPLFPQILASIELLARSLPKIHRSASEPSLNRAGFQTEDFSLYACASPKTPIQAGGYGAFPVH
- Measurement protocol: Cellular assay of target protein degradation, T-Rex 293 cells stably transfected with HA-BRAF G466V (HA immunofluorescence, high content imaging)
- Format: cell-based
- Assay conditions: maximum degradation observed, T-Rex 293 HA-BRAF G466V
Let's look at some compounds and their measured Dmax.

Memo: CN(C1CC1)S(=O)(=O)Nc1ccc(F)c(C(=O)c2c[nH]c3ncc(-c4ccc(N5CCC(CN6CCC(c7ccc8c(c7)CN([C@H]7CCC(=O)NC7=O)C8=O)CC6)CC5)cc4)cc23)c1F [Compound 281] , reported Dmax: 35 to 70%

New cases:
Memo: CCc1c(NS(=O)(=O)N2CC[C@@H](F)C2)ccc(F)c1C(=O)c1c[nH]c2ncc(-c3ccc(N4CCC(CN5CCC(c6ccc7c(c6)CN(C6CCC(=O)NC6=O)C7=O)CC5)CC4)cc3)cc12 (stereo partly drawn) [Compound 276] , reported Dmax: 35 to 70%

Memo: O=C1CCC(N2Cc3cc(N4CCC(CN5CC[C@@H]6CN(c7ccc(-c8cnc9[nH]cc(C(=O)c%10c(F)ccc(NS(=O)(=O)N%11CC[C@@H](F)C%11)c%10F)c9c8)cc7)C[C@@H]6C5)CC4)ccc3C2=O)C(=O)N1 (stereo partly drawn) [Compound 309] , reported Dmax: > 70%

Memo: COc1cc(N2CC3(CN(CC4CCN(c5ccc(-c6cnc7[nH]cc(C(=O)c8c(F)ccc(NS(=O)(=O)N9CC[C@@H](F)C9)c8F)c7c6)cc5)CC4)C3)C2)ccc1C(=O)N[C@H]1CCC(=O)NC1=O [Compound 343] , reported Dmax: > 70%

Memo: COc1cc([C@H](O)CCN2CCN(c3ccc(-c4cnc5[nH]cc(C(=O)c6c(F)ccc(NS(=O)(=O)N7CC[C@@H](F)C7)c6F)c5c4)cc3)CC2)cc2c1C(=O)N([C@H]1CCC(=O)NC1=O)C2 [Compound 186] , reported Dmax: > 70%

Memo: O=C1CC[C@@H](N2Cc3cc(C4CCN(CC5CCN(c6ccc(-c7cnc8[nH]cc(C(=O)c9c(F)ccc(NS(=O)(=O)N%10CC[C@@H](F)C%10)c9F)c8c7)cc6)CC5)CC4)ccc3C2=O)C(=O)N1 [Compound 161] , reported Dmax: > 70%
